assay: Toxicity liver stage against HepG2, at 10uM; format: cell-based; parameters: test concentration 10 uM, cell line HepG2-A16-CD81EGFP; details: human, HepG2-A16-CD81EGFP cells; read-out: INHIBITION
propertyName: cytotoxicity at 10 µM (%)
Number in %, nothing else.

Field: example entries. Status: answers known.
Tell me the measured cytotoxicity at 10 µM of Cc1cccnc1[C@H](C)NC(=O)Cc1cc2c(cc1Cl)OCCO2 , please. -8.26

Same read-out for Cc1nnc(C(C)Nc2cccc(COCC(F)(F)C(F)F)c2)o1 (stereo not given) ? -1.2

Same read-out for COc1ccc(NC(=O)CSc2nc(C)cc(C)n2)cn1 ? -0.384

Same read-out for O=c1c(NCc2ccco2)c(NCC(O)CN2CCOCC2)c1=O (stereo not given) ? -55.8

Same read-out for O=C(Nc1cccc(CNCc2cccs2)c1)C1CCCC1 ? -4.59

Same read-out for CN(C)C(=O)CN1CC[C@H]2CN(S(C)(=O)=O)C[C@@H]2C1=O ? -13.1

Same read-out for Cc1nc(CN2CCC(CNC(=O)Nc3ccccc3)CC2)oc1C ? 3.54

Same read-out for COCCc1nc(-c2cnn3c(C)cc(C)nc23)no1 ? 2.49

Same read-out for O=C(NCC1CC2(CO1)CN(c1nncs1)C2)C1CCC1 (stereo not given) ? -103

Same read-out for Cc1ccc(CNC(c2ccccc2)c2nccn2C)cc1C (stereo not given) ? 0.323

Others:
Tell me the measured cytotoxicity at 10 µM of CC(NCCCN1CCCC1=O)c1cc(Br)ccc1O (stereo not given) , please. -1.41

Same read-out for CCOC(=O)CN1C(=O)CN(S(C)(=O)=O)CCC(OC)c2ccccc21 (stereo not given) ? 1.5

----------
assay: Toxicity liver stage against HepG2, at 10uM; format: cell-based; set-up: test concentration 10 uM, cell line HepG2-A16-CD81EGFP; conditions: human, HepG2-A16-CD81EGFP cells; read-out: INHIBITION
Listing of entries alongside the reported cytotoxicity at 10 µM.
Report the figure along with its unit, number first.

Field: example entries. Status: answers known.
Tell me the measured cytotoxicity at 10 µM of CCCN1C[C@H](NC(=O)c2ccccc2F)[C@@H](c2ccc(OC)cc2)C1 , please. -41.8%

Same read-out for O=C(c1cccnc1)N1CCCC(c2cc(C(F)F)n3ncnc3n2)C1 (stereo not drawn) ? 0.745%

Field: next compound
Tell me the measured cytotoxicity at 10 µM of O=C(O)c1cc2c(nc1-c1ccncc1)CCN(Cc1ccoc1)CC2 , please. -70.9%

----------
test: Toxicity liver stage against HepG2, at 10uM; format: cell-based; design: test concentration 10 uM, cell line HepG2-A16-CD81EGFP; conditions: human, HepG2-A16-CD81EGFP cells; read-out: INHIBITION
Listing of entries alongside the reported cytotoxicity at 10 µM.
Number in %, nothing else.

Tell me the measured cytotoxicity at 10 µM of Cc1ccc2c(c1)C(=O)NCC1(CCN(Cc3ccccc3)CC1)O2 , please. -26.9

Field: next molecule
Tell me the measured cytotoxicity at 10 µM of Cc1ccccc1C(=O)N1CC2(COC(C)(C)OC2)C1 , please. 4.56

----------
assay: Toxicity liver stage against HepG2, at 10uM; type: cell-based; set-up: test concentration 10 uM, cell line HepG2-A16-CD81EGFP; details: human, HepG2-A16-CD81EGFP cells; read-out: INHIBITION
Listing of entries alongside the reported cytotoxicity at 10 µM.
Number in %, nothing else.

Tell me the measured cytotoxicity at 10 µM of Cc1csc(N2CCCN(C(=O)C(C)n3cncn3)CC2)n1 (stereo unspecified) , please. -3.6

Same read-out for CC(C)OCCN1CCN(c2ccc(CN(C)C)cn2)CC1 ? -5.89

Same read-out for CCOCCCNC(=O)CN(c1cc(C)cc(C)c1)S(C)(=O)=O ? 4.48

Same read-out for Cc1cnn(CC2CCCCN2C(=O)c2ccc(CN(C)C)cc2)c1 (stereo unspecified) ? -11.4

Same read-out for O=C(CN1CCC(c2ccccc2)C1)NCC(F)(F)F (stereo unspecified) ? -5.28

Field: next compound
Tell me the measured cytotoxicity at 10 µM of CC(C)(C)NC(=O)CN1CCCNCC1 , please. -145
